Tested on: RARg:RXRa (NR concentration 270 nM, RXRa partner concentration 90 nM)
ASSAY_METHOD_TEXT: PBM binding z-score (relative to random genomic background probes); higher = stronger binding; sequences stand for … in GC…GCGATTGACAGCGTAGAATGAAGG
Criterion: PBM binding z-score meeting or surpassing 2. Met: Y. Not met: N.

# ITEM_SEQUENCE, EXPERIMENTAL_SYSTEM, LABEL
measured = [
    ("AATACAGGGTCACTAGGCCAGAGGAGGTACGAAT", "RARg:RXRa (NR concentration 270 nM, RXRa partner concentration 90 nM)", "Y"),
    ("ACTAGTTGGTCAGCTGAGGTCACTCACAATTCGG", "RARg:RXRa (NR concentration 270 nM, RXRa partner concentration 90 nM)", "Y"),
    ("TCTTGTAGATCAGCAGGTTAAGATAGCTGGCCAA", "RARg:RXRa (NR concentration 270 nM, RXRa partner concentration 90 nM)", "N"),
    ("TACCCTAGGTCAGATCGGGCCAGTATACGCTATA", "RARg:RXRa (NR concentration 270 nM, RXRa partner concentration 90 nM)", "Y"),
    ("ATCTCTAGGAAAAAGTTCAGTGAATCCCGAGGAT", "RARg:RXRa (NR concentration 270 nM, RXRa partner concentration 90 nM)", "N"),
    ("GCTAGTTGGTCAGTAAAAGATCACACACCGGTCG", "RARg:RXRa (NR concentration 270 nM, RXRa partner concentration 90 nM)", "N"),
    ("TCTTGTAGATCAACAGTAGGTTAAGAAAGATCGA", "RARg:RXRa (NR concentration 270 nM, RXRa partner concentration 90 nM)", "N"),
    ("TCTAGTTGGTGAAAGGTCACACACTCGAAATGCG", "RARg:RXRa (NR concentration 270 nM, RXRa partner concentration 90 nM)", "Y"),
    ("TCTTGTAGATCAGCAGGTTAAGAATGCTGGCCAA", "RARg:RXRa (NR concentration 270 nM, RXRa partner concentration 90 nM)", "N"),
    ("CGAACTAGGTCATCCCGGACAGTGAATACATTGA", "RARg:RXRa (NR concentration 270 nM, RXRa partner concentration 90 nM)", "Y"),
    ("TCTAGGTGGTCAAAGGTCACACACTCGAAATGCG", "RARg:RXRa (NR concentration 270 nM, RXRa partner concentration 90 nM)", "Y"),
    ("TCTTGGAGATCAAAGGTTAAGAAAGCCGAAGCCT", "RARg:RXRa (NR concentration 270 nM, RXRa partner concentration 90 nM)", "Y"),
    ("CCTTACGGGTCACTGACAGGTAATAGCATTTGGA", "RARg:RXRa (NR concentration 270 nM, RXRa partner concentration 90 nM)", "Y"),
    ("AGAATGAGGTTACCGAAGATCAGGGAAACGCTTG", "RARg:RXRa (NR concentration 270 nM, RXRa partner concentration 90 nM)", "Y"),
    ("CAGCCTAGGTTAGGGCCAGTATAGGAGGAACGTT", "RARg:RXRa (NR concentration 270 nM, RXRa partner concentration 90 nM)", "N"),
    ("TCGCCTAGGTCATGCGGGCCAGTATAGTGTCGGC", "RARg:RXRa (NR concentration 270 nM, RXRa partner concentration 90 nM)", "Y"),
    ("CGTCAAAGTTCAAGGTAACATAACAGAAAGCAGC", "RARg:RXRa (NR concentration 270 nM, RXRa partner concentration 90 nM)", "Y"),
    ("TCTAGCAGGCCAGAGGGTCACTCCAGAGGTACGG", "RARg:RXRa (NR concentration 270 nM, RXRa partner concentration 90 nM)", "Y"),
    ("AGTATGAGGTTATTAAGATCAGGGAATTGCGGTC", "RARg:RXRa (NR concentration 270 nM, RXRa partner concentration 90 nM)", "N"),
    ("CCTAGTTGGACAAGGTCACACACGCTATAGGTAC", "RARg:RXRa (NR concentration 270 nM, RXRa partner concentration 90 nM)", "Y"),
    ("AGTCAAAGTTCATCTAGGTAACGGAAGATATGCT", "RARg:RXRa (NR concentration 270 nM, RXRa partner concentration 90 nM)", "Y"),
    ("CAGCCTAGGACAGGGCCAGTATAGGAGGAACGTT", "RARg:RXRa (NR concentration 270 nM, RXRa partner concentration 90 nM)", "N"),
    ("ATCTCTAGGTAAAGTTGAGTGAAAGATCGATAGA", "RARg:RXRa (NR concentration 270 nM, RXRa partner concentration 90 nM)", "N"),
    ("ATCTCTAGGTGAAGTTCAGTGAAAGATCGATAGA", "RARg:RXRa (NR concentration 270 nM, RXRa partner concentration 90 nM)", "N"),
    ("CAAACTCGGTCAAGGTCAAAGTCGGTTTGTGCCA", "RARg:RXRa (NR concentration 270 nM, RXRa partner concentration 90 nM)", "Y"),
    ("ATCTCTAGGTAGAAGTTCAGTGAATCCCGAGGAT", "RARg:RXRa (NR concentration 270 nM, RXRa partner concentration 90 nM)", "N"),
    ("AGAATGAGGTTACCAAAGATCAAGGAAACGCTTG", "RARg:RXRa (NR concentration 270 nM, RXRa partner concentration 90 nM)", "Y"),
    ("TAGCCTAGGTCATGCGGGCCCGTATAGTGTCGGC", "RARg:RXRa (NR concentration 270 nM, RXRa partner concentration 90 nM)", "Y"),
    ("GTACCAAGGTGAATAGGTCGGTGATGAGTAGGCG", "RARg:RXRa (NR concentration 270 nM, RXRa partner concentration 90 nM)", "N"),
    ("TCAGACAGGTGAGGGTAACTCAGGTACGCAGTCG", "RARg:RXRa (NR concentration 270 nM, RXRa partner concentration 90 nM)", "N"),
    ("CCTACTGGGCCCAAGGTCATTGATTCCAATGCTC", "RARg:RXRa (NR concentration 270 nM, RXRa partner concentration 90 nM)", "Y"),
    ("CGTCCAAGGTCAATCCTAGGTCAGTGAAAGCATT", "RARg:RXRa (NR concentration 270 nM, RXRa partner concentration 90 nM)", "Y"),
    ("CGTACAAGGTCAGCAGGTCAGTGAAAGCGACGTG", "RARg:RXRa (NR concentration 270 nM, RXRa partner concentration 90 nM)", "Y"),
    ("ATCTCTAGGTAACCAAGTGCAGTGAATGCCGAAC", "RARg:RXRa (NR concentration 270 nM, RXRa partner concentration 90 nM)", "N"),
    ("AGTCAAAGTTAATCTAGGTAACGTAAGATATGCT", "RARg:RXRa (NR concentration 270 nM, RXRa partner concentration 90 nM)", "N"),
    ("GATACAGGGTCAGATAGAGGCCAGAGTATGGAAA", "RARg:RXRa (NR concentration 270 nM, RXRa partner concentration 90 nM)", "Y"),
    ("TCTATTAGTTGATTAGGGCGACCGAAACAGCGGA", "RARg:RXRa (NR concentration 270 nM, RXRa partner concentration 90 nM)", "N"),
    ("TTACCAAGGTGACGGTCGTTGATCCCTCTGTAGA", "RARg:RXRa (NR concentration 270 nM, RXRa partner concentration 90 nM)", "N"),
    ("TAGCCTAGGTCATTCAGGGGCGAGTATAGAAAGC", "RARg:RXRa (NR concentration 270 nM, RXRa partner concentration 90 nM)", "Y"),
    ("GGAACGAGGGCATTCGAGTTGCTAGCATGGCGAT", "RARg:RXRa (NR concentration 270 nM, RXRa partner concentration 90 nM)", "N"),
    ("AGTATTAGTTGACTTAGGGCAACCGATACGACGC", "RARg:RXRa (NR concentration 270 nM, RXRa partner concentration 90 nM)", "N"),
    ("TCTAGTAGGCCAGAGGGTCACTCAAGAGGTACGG", "RARg:RXRa (NR concentration 270 nM, RXRa partner concentration 90 nM)", "Y"),
    ("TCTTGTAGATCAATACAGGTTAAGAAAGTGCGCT", "RARg:RXRa (NR concentration 270 nM, RXRa partner concentration 90 nM)", "N"),
    ("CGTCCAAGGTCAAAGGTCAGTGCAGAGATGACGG", "RARg:RXRa (NR concentration 270 nM, RXRa partner concentration 90 nM)", "Y"),
    ("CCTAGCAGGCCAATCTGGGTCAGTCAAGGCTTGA", "RARg:RXRa (NR concentration 270 nM, RXRa partner concentration 90 nM)", "N"),
    ("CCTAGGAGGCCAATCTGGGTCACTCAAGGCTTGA", "RARg:RXRa (NR concentration 270 nM, RXRa partner concentration 90 nM)", "N"),
    ("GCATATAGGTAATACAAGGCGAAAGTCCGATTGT", "RARg:RXRa (NR concentration 270 nM, RXRa partner concentration 90 nM)", "N"),
    ("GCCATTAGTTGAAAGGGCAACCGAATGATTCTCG", "RARg:RXRa (NR concentration 270 nM, RXRa partner concentration 90 nM)", "N"),
]
